Assayed Target: UniProt P0C1B3
Assay Method Text: biochemical
Measurement Conditions: IC50 values (mM) α-Amylase, mean ± SD, n = 3
Can you tell me IC50 for the items I'm about to list?
Answers are plain numbers, in mM.

# Compound, Unit Symbol, Endpoint Value
measured = [
    ("CC(=O)C1CCCN1Cc1ccccc1 (centres unmarked) [4a, N-(benzyl)-2-acetylpyrrolidine]", "mM", 2.72),
]

## Input Supply IC50 measured with UniProt P0C1B3 for CC(=O)C1CCCN1S(=O)(=O)c1ccc(C)cc1 (centres unmarked) [4b, N-(tosyl)-2-acetylpyrrolidine] .
## Output 3.21

----------
Assayed Target: α-amylase from Aspergillus oryzae (Aspergillus oryzae)
Assay Method Text: biochemical
Metric: IC50
A complete answer gives the number followed by the unit.

# Molecule, Metric, Endpoint Value
measured = [
    ("CC(=O)C1CCCN1S(=O)(=O)c1ccc(C)cc1 (centres unmarked) [4b, N-(tosyl)-2-acetylpyrrolidine]", "IC50", "2720 µM"),
]

Consider the record given below.
## Input Given the molecule CC(=O)C1CCCN1Cc1ccccc1 (centres unmarked) [4a, N-(benzyl)-2-acetylpyrrolidine] , write its reported IC50.
## Output 3210 µM

----------
Assayed Target: α-glucosidase from Saccharomyces cerevisiae (Saccharomyces cerevisiae)
Can you tell me pKi for the items I'm about to list?
One number for each entry, as −log10 of the molar value.

# Compound, pKi
measured = [
    ("CC(=O)C1CCCN1S(=O)(=O)c1ccc(C)cc1 (centres unmarked)", 3.64),
]

## Input Given the compound CC(=O)C1CCCN1Cc1ccccc1 (centres unmarked) , write its reported pKi.
## Output 3.54

----------
Assayed Target: UniProt P0C1B3
Assay Method Text: Kinetic study on α-amylase
Type: biochemical
Measurement Conditions: α-Amylase Ki, from slope (Km/Vmax) vs [I]; substrate amylose; free enzyme
Metric: pKi
One number for each entry, as −log10 of the molar value.

# Compound, pKi
rows = [
    ("CC(=O)C1CCCN1Cc1ccccc1 (centres unmarked) [4a, N-(benzyl)-2-acetylpyrrolidine]", 3.64),
]

Consider the record given below.
## Input Supply pKi measured with UniProt P0C1B3 for CC(=O)C1CCCN1S(=O)(=O)c1ccc(C)cc1 (centres unmarked) [4b, N-(tosyl)-2-acetylpyrrolidine] .
## Output 3.57

----------
The reader will find pIC50 measurements below, all made with α-glucosidase from Saccharomyces cerevisiae (Saccharomyces cerevisiae, UniProt P53341).
Sequence (P53341 whole entry): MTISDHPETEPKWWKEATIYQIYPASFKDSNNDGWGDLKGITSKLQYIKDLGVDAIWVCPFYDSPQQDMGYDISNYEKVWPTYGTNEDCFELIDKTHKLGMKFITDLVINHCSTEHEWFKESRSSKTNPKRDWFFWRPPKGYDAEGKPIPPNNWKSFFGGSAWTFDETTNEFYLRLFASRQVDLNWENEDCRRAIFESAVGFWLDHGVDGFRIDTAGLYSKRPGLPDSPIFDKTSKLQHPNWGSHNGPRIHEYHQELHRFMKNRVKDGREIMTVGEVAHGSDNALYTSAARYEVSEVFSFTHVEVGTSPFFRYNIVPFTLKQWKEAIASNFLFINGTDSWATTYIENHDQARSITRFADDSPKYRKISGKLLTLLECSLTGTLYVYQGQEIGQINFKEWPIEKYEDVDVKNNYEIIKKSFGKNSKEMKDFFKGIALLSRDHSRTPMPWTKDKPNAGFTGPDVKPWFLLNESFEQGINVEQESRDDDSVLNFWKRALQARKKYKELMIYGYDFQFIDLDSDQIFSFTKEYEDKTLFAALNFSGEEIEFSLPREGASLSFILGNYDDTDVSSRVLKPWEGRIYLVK
One number for each entry, as −log10 of the molar value.

# Compound, Metric, Endpoint Value
records = [
    ("CC(=O)C1CCCN1Cc1ccccc1 (centres unmarked)", "pIC50", 3.28),
]

Consider the record given below.
## Input Supply pIC50 measured with α-glucosidase from Saccharomyces cerevisiae (Saccharomyces cerevisiae, UniProt P53341) for CC(=O)C1CCCN1S(=O)(=O)c1ccc(C)cc1 (centres unmarked) .
## Output 2.79

These measurements were taken from paper PMC7053292.
